Target: Chk1 (Homo sapiens, UniProt O14757)
Sequence (O14757 whole entry): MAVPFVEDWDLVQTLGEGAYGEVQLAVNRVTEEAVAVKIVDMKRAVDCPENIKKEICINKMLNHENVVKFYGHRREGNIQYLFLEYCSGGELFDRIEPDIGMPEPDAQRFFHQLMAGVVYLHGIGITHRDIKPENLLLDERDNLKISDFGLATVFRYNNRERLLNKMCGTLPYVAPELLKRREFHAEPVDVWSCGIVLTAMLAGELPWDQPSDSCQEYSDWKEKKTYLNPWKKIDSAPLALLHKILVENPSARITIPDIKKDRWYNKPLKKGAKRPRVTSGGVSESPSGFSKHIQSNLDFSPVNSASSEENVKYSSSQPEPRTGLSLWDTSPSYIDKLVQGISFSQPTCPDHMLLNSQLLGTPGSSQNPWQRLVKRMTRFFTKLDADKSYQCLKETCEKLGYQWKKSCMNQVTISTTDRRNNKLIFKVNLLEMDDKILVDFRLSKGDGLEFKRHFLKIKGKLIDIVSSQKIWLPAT
Experiment: HCIF-CETSA (CETSA by immunofluorescence), low well volume heating, HT29 cells
Format: cell-based
Set-up: Thermal response profile of Chk1 in HT29 cells detected by immunofluorescent imaging with the EP691Y antibody; endogenous in cells; host or cells: HT29
Details: HT29, 10 min, 25 μL media, 49°C (Fig 6B); read-out: HCIF-CETSA EC50, mean of three independent experiments
metric: EC50 (nM)
Kindly answer with a numeric value in nM, unit omitted.

query: Need EC50, item CN(C)CC(C)(C)COc1ccc2[nH]c(-c3cc(NC(=O)c4cnn(Cc5ccccc5)c4)c[nH]c3=O)cc2c1 [V158411]
result: 1700
